Target: Human TREM2 (Homo sapiens)
Test: Human TREM2 cellular phospho-Syk AlphaLISA assay in HEK293/DAP12+TREM2 stable cell line
Conditions: phospho-Syk (Tyr525/526) AlphaLISA signal, HEK293/DAP12+TREM2 cells, 30 min incubation
Catalogue of compounds with associated EC50
readout-name: EC50

{"columns": ["compound", "readout-name", "result"],
 "data": [
  ["Cn1c(C(F)(F)F)nc2c(-c3ccc(C#N)nc3)nc(N3CC(Oc4cnn(C5CC5)c4)C3)nc2c1=O [Example 38]", "EC50", "100 to 1000 nM"],
  ["Cc1nnc(OC2CN(c3nc(-c4ccc(C#N)cc4F)c4nc(C(F)(F)F)n(C)c(=O)c4n3)C2)s1 [Example 3]", "EC50", "100 to 1000 nM"],
  ["Cc1ncncc1OC1CN(c2nc(-c3ccc(C#N)cc3F)c3nc(C(F)(F)F)n(C)c(=O)c3n2)C1 [Example 29]", "EC50", "100 to 1000 nM"],
  ["Cn1ncc(OC2CN(c3nc(-c4ccc(C#N)cc4F)c4nc(C(F)(F)F)n(C)c(=O)c4n3)C2)c1Cl [Example 13]", "EC50", "100 to 1000 nM"],
  ["Cc1cc(CC2CN(c3nc(-c4ccc(F)cc4F)c4nc(C(F)(F)F)n(C)c(=O)c4n3)C2)ccn1 [Example 34]", "EC50", "10 to 100 nM"],
  ["Cc1cc(OC2CN(c3nc(-c4ccc(F)cc4F)c4nc(C(F)(F)F)n(C)c(=O)c4n3)C2)ccn1 [Example 30]", "EC50", "10 to 100 nM"],
  ["Cn1c(C(F)(F)F)nc2c(-c3ccc(F)cc3F)nc(N3CC(Cc4cnn(C5CC5)c4)C3)nc2c1=O [Example 31]", "EC50", "100 to 1000 nM"]
]}

----------
Target: Human TREM2 (Homo sapiens, UniProt Q9NZC2)
Construct: expressed in transfected cells
Sequence (Q9NZC2 19-230): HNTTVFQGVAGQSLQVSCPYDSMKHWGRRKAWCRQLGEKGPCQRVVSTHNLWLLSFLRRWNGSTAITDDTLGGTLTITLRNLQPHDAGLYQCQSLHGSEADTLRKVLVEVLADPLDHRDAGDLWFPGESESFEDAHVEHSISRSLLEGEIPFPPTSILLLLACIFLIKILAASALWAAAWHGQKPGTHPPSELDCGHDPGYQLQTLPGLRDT
Sequence (O43914 22-113 partner): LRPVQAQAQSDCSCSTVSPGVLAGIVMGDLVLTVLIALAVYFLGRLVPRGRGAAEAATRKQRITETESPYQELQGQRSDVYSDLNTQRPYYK
Experiment: Human TREM2 cellular phospho-Syk AlphaLISA assay in HEK293/DAP12+TREM2 stable cell line
Assay type: cell-based
Details: maximal response relative to the maximal response of the reference agonist; phospho-Syk AlphaLISA, HEK293/DAP12+TREM2 cells

{"columns": ["record-smiles", "Emax"],
 "data": [
  ["Cn1c(C(F)(F)F)nc2c(-c3ccc(C#N)cc3F)nc(N3CC(Oc4cnnc(Cl)c4)C3)nc2c1=O", "< 75%"],
  ["Cn1cc(-c2nc(N3CC(Oc4cnn(C5CC5)c4)C3)nc3c(=O)n(C)c(C(F)(F)F)nc23)ccc1=O", "75 to 110%"],
  ["Cn1c(C(F)(F)F)nc2c(-c3ccc(C#N)cc3F)nc(N3CC(Oc4cnn(C5CC5)c4)C3)nc2c1=O", "75 to 110%"],
  ["Cc1cc(CC2CN(c3nc(-c4ccc(F)cc4F)c4nc(C(F)(F)F)n(C)c(=O)c4n3)C2)ccn1", "< 75%"]
]}

----------
Biological target: UniProt:Q9NZC2
Test: Human TREM2 cellular phospho-Syk AlphaLISA assay in HEK293/DAP12+TREM2 stable cell line
Settings: phospho-Syk (Tyr525/526) AlphaLISA signal, HEK293/DAP12+TREM2 cells, 30 min incubation
pEC50: −log10 of the molar value.

{"columns": ["record-smiles", "pEC50"],
 "data": [
  ["CN(c1cnn(C2CC2)c1)C1CN(c2nc(-c3ccc(F)cc3F)c3nc(C(F)(F)F)n(C)c(=O)c3n2)C1", "6.00 to 7.00"],
  ["Cn1c(C(F)(F)F)nc2c(-c3ccc(C#N)cc3F)nc(N3CC(Oc4ccnc(C(F)F)c4)C3)nc2c1=O", "7.00 to 8.00"],
  ["Cc1c(OC2CN(c3nc(-c4ccc(C#N)cc4F)c4nc(C(F)(F)F)n(C)c(=O)c4n3)C2)cnn1C", "6.00 to 7.00"],
  ["COc1ccc(-c2nc(N3CC(Oc4cnn(C5CC5)c4)C3)nc3c(=O)n(C)c(C(F)(F)F)nc23)cn1", "6.00 to 7.00"],
  ["COc1ccc(-c2nc(N3CC(Oc4cnn(C5CC5)c4)C3)nc3c(=O)n(C)c(C(F)(F)F)nc23)c(F)c1", "6.00 to 7.00"],
  ["Cn1c(C(F)(F)F)nc2c(-c3ccc(C#N)cc3F)nc(N3CC(Oc4cnccn4)C3)nc2c1=O", "7.00 to 8.00"],
  ["Cn1c(C(F)(F)F)nc2c(-c3ccc(C#N)cc3F)nc(N3CC(Oc4cnnc(Cl)c4)C3)nc2c1=O", "6.00 to 7.00"]
]}

----------
Molecular target: Human TREM2 (Homo sapiens)
Assay: Human TREM2 cellular phospho-Syk AlphaLISA assay in HEK293/DAP12+TREM2 stable cell line
Settings: phospho-Syk (Tyr525/526) AlphaLISA signal, HEK293/DAP12+TREM2 cells, 30 min incubation
Source text: Human TREM2, in vitro Measurement of Triggering Receptor Expressed on Myeloid Cells 2 activity using cellular phosphorylation of Spleen Tyrosine Kinase (“Syk”) Assay […] TREM2 signaling through DAP12 was monitored in the HEK293/DAP12+TREM2 stable cell line by measuring the phosphorylation levels of the Syk kinase using the commercially available AlphaLISA SureFire Ultra p-SYK (Tyr525/526) Assay Kit (PerkinElmer #ALSU-PSYK), based on the Perkin Elmer AlphaScreen/AlphaLISA technology. […]
pEC50: −log10 of the molar value.
Catalogue of molecules with associated pEC50
readout-name: pEC50

{"columns": ["molecule", "readout-name", "result"],
 "data": [
  ["Cn1c(C(F)(F)F)nc2c(-c3ccc(C#N)cc3F)nc(N3CC(Oc4ccnc(C5CC5)c4)C3)nc2c1=O [Example 22]", "pEC50", "7.00 to 8.00"],
  ["Cn1c(C(F)(F)F)nc2c(-c3ccc(C#N)cc3F)nc(N3CC(Oc4cnc(C#N)cn4)C3)nc2c1=O [Example 7]", "pEC50", "6.00 to 7.00"],
  ["Cn1c(C(F)(F)F)nc2c(-c3ccc(C#N)cc3)nc(N3CC(Oc4cnn(C5CC5)c4)C3)nc2c1=O [Example 35]", "pEC50", "7.00 to 8.00"],
  ["Cn1c(C(F)(F)F)nc2c(-c3ccc(F)cc3F)nc(N3CC(Oc4cnn(C5CC5)c4)C3)cc2c1=O [Example 40]", "pEC50", "6.00 to 7.00"],
  ["Cc1ncc(OC2CN(c3nc(-c4ccc(C#N)cc4F)c4nc(C(F)(F)F)n(C)c(=O)c4n3)C2)cn1 [Example 28]", "pEC50", "6.00 to 7.00"]
]}

----------
Catalogue of compounds with associated pEC50
Biological target: Human TREM2 (Homo sapiens)
Test: Human TREM2 cellular phospho-Syk AlphaLISA assay in HEK293/DAP12+TREM2 stable cell line
Settings: phospho-Syk (Tyr525/526) AlphaLISA signal, HEK293/DAP12+TREM2 cells, 30 min incubation
pEC50: −log10 of the molar value.

{"columns": ["record-smiles", "target-desc", "pEC50"],
 "data": [
  ["Cn1c(C(F)(F)F)nc2c(-c3ccc(C#N)cc3F)nc(N3CC(Oc4cnn(CC(F)F)c4)C3)nc2c1=O", "Human TREM2 (Homo sapiens)", "6.00 to 7.00"],
  ["Cn1c(C(F)(F)F)nc2c(-c3ccc(C#N)cc3F)nc(N3CC(Oc4cnn(C5CCC5)c4)C3)nc2c1=O", "Human TREM2 (Homo sapiens)", "7.00 to 8.00"],
  ["Cn1c(C(F)(F)F)nc2c(-c3ccc(C#N)cc3F)nc(N3CC(Oc4ccnc(C(F)(F)F)c4)C3)nc2c1=O", "Human TREM2 (Homo sapiens)", "7.00 to 8.00"],
  ["Cn1c(C(F)(F)F)nc2c(-c3ccc(C#N)cc3F)nc(N3CC(Oc4ccnc(C#N)c4)C3)nc2c1=O", "Human TREM2 (Homo sapiens)", "7.00 to 8.00"],
  ["Cn1c(C(F)(F)F)nc2c(-c3ccc(C#N)cc3F)nc(N3CC(Oc4cnn(C5CCCC5)c4)C3)nc2c1=O", "Human TREM2 (Homo sapiens)", "> 8.00"],
  ["Cn1c(C(F)(F)F)nc2c(-c3ccc(C#N)cc3F)nc(N3CC(Oc4cnn(C5CC5)c4)C3)nc2c1=O", "Human TREM2 (Homo sapiens)", "> 8.00"],
  ["Cn1c(C(F)(F)F)nc2c(-c3ccc(C#N)cc3F)nc(N3CC(Oc4cnn(CC5CC5)c4)C3)nc2c1=O", "Human TREM2 (Homo sapiens)", "7.00 to 8.00"],
  ["COc1cc(OC2CN(c3nc(-c4ccc(C#N)cc4F)c4nc(C(F)(F)F)n(C)c(=O)c4n3)C2)ccn1", "Human TREM2 (Homo sapiens)", "> 8.00"],
  ["CCc1nnc(OC2CN(c3nc(-c4ccc(C#N)cc4F)c4nc(C(F)(F)F)n(C)c(=O)c4n3)C2)s1", "Human TREM2 (Homo sapiens)", "6.00 to 7.00"],
  ["Cn1c(C(F)(F)F)nc2c(-c3ccc(C#N)cc3F)nc(N3CC(Oc4nncs4)C3)nc2c1=O", "Human TREM2 (Homo sapiens)", "< 6.00"],
  ["Cn1c(C(F)(F)F)nc2c(-c3ccc(C#N)cc3F)nc(N3CC(Oc4cnn(C(F)F)c4)C3)nc2c1=O", "Human TREM2 (Homo sapiens)", "7.00 to 8.00"],
  ["CCCn1cc(OC2CN(c3nc(-c4ccc(C#N)cc4F)c4nc(C(F)(F)F)n(C)c(=O)c4n3)C2)cn1", "Human TREM2 (Homo sapiens)", "6.00 to 7.00"],
  ["Cn1c(C(F)(F)F)nc2c(-c3ccc(C#N)cc3F)nc(N3CC(Oc4cncnc4)C3)nc2c1=O", "Human TREM2 (Homo sapiens)", "6.00 to 7.00"],
  ["Cc1nn(C)cc1OC1CN(c2nc(-c3ccc(C#N)cc3F)c3nc(C(F)(F)F)n(C)c(=O)c3n2)C1", "Human TREM2 (Homo sapiens)", "6.00 to 7.00"],
  ["Cn1cc(-c2nc(N3CC(Oc4cnn(C5CC5)c4)C3)nc3c(=O)n(C)c(C(F)(F)F)nc23)ccc1=O", "Human TREM2 (Homo sapiens)", "6.00 to 7.00"]
]}
